Record form. Attribute: MIC. Fill in for each entry.
test system: P. aeruginosa (ATCC 10145); test: Antibacterial broth microdilution MIC assay; assay type: cell-based, Pseudomonas aeruginosa; conditions: >99% inhibition of growth, MH broth, 20-22 h, 37 °C
Where a SMILES comes first, the peptide text is derived from it. [ ]: non-standard residue; d: D form. The star is where a group is joined. Levofloxacinoyl = C[C@H]1COc2c(N3CCN(C)CC3)c(F)cc3c(=O)c(C(=O)*)cn1c23; βAla = NCCC(=O)O
Answers are plain numbers, in µM.

Example entries and their recorded answers appear below.
INSERT INTO measurements (compound, numeric_readout) VALUES
  ('CC[C@H](C)[C@H](NC(=O)[C@@H](NC(=O)CNC(=O)[C@H](CCSC)NC(=O)[C@H](CC(C)C)NC(=O)[C@H](CCCCN)NC(=O)[C@H](CCCCN)NC(=O)[C@H](CC(C)C)NC(=O)[C@H](Cc1ccccc1)NC(=O)CCNC(=O)c1cn2c3c(c(N4CCN(C)CC4)c(F)cc3c1=O)OC[C@@H]2C)C(C)C)C(=O)N[C@H](C)C(=O)N[C@@H](CO)C(=O)N[C@@H](CC(C)C)C(=O)N[C@@H](Cc1ccccc1)C(N)=O [RLFP-4 (8)] ({Levofloxacinoyl-βAla}-FLKKLMGVI[dA]SLF-NH2)', 12.5),
  ('CC[C@H](C)[C@H](NC(=O)[C@@H](NC(=O)CNC(=O)[C@H](CCSC)NC(=O)[C@H](CC(C)C)NC(=O)[C@H](CCCCN)NC(=O)[C@H](CCCCN)NC(=O)[C@H](CC(C)C)NC(=O)[C@@H](N)Cc1ccccc1)C(C)C)C(=O)N[C@H](C)C(=O)N[C@@H](CO)C(=O)N[C@@H](CC(C)C)C(=O)N[C@@H](Cc1ccccc1)C(N)=O [RSP-4 (7)] (H-FLKKLMGVI[dA]SLF-NH2)', 200);

Attention now shifts to the item below.
(Q) Please give the measured MIC for this compound: CC[C@H](C)[C@H](NC(=O)[C@@H](NC(=O)CNC(=O)[C@H](CCSC)NC(=O)[C@H](CC(C)C)NC(=O)CNC(=O)[C@H](CCCCN)NC(=O)[C@H](CC(C)C)NC(=O)[C@@H](N)Cc1ccccc1)C(C)C)C(=O)N[C@H](C)C(=O)N[C@@H](CO)C(=O)N[C@@H](CC(C)C)C(=O)N[C@@H](Cc1ccccc1)C(N)=O [RNST-2 (2)] (H-FLKGLMGVI[dA]SLF-NH2)
(A) 200
